B1: TPR 5TU (parent)
chain: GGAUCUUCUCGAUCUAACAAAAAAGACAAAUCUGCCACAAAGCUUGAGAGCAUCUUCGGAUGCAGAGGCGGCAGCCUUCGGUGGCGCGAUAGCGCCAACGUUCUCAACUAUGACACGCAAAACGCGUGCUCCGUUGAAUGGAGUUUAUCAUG

Variants of: B1
Assay: polymerase ribozyme fitness, log enrichment relative to wild type (log ratio); higher = more active; in vitro selection for triplet polymerase activity
Fewer inactive variants are shown than the library holds.
readoutKind: polymerase ribozyme fitness (log ratio)

{"columns": ["mutantName", "readoutKind", "signQualifier", "endpointValue"],
 "data": [
  ["A60U G84U", "polymerase ribozyme fitness (log ratio)", "=", -1.58],
  ["C27A G34U U53A G71C G88U C96U U144A U146A", "polymerase ribozyme fitness (log ratio)", "≤", -4.2],
  ["C116U A142U", "polymerase ribozyme fitness (log ratio)", "=", -0.344],
  ["C69U A73G G83C", "polymerase ribozyme fitness (log ratio)", "=", -3.38],
  ["G126A C132U A142C", "polymerase ribozyme fitness (log ratio)", "≤", -4.2],
  ["A17G A60G C85G A89U", "polymerase ribozyme fitness (log ratio)", "=", -2.31],
  ["A22U A39U A41G A52C G83U G94A G152C", "polymerase ribozyme fitness (log ratio)", "=", -4.02],
  ["A24U C51G U55A G59C", "polymerase ribozyme fitness (log ratio)", "=", -2.27],
  ["U56C G67U A91C A97U C123A", "polymerase ribozyme fitness (log ratio)", "≤", -4.2],
  ["U127G U134A", "polymerase ribozyme fitness (log ratio)", "=", -4.18],
  ["U55A A73C C87U G92A", "polymerase ribozyme fitness (log ratio)", "=", -2.04]
]}
